Origin of the recorded values: PubChem BioAssay (Tox21)

assay: A CellTox Green Cytotoxicity Assay to monitor cytotoxicity in HEK293 cells - 32 hour (AID 1224881); settings: CellTox Green fluorescence; series mostly up to 76.8 µM; also: % is scaled to controls: 0 for no effect and ±100 for the full control effect; nearly all actives have a fitted effect of over 40% in size
Inconclusive results are not listed. Activity calls are given as the source filed them. Calls follow the shape of the dose curve; as a rule, active = well fitted activation curve with a large enough effect in the repeat runs; inconclusive = weak or mixed curves; inactive = flat fitted curve, though single readings scatter.
Answer with one of the outcomes given here: active, inactive

Solved cases (4 shown):
INSERT INTO measurements (compound, class_name) VALUES
  ('CCCCCCc1ccc(-c2ccc(C#N)cc2)cc1', 'inactive'),
  ('CCN(CC)c1ccc(C(=C2C=CC(=[N+](CC)CC)C=C2)c2cc(S(=O)(=O)O)ccc2S(=O)(=O)[O-])cc1', 'inactive'),
  ('C1CCCNCCC1', 'inactive'),
  ('C[C@@H]1C[C@H]2[C@@H]3CCC4=CC(=O)C=C[C@]4(C)[C@@]3(F)[C@@H](O)C[C@]2(C)[C@@]1(O)C(=O)COC(=O)c1ccncc1', 'inactive');

Prompt: # lookup: test call for CCOc1ccc(N=Nc2ccc(/C=C/c3ccc(N=Nc4ccc(OCC)cc4)cc3S(=O)(=O)O)c(S(=O)(=O)O)c2)cc1
Completion: inactive

Prompt: # lookup: test call for O=S(=O)(Oc1ccc(Cl)cc1)c1ccccc1
Completion: inactive

Prompt: # lookup: test call for NCCCN1CCOCC1
Completion: inactive

###

assay: qHTS assay to test for compound auto fluorescence at 590 nm (red) in HepG2 cell free culture (AID 720684); details: cell-free medium autofluorescence, red 540/590 nm; series mostly up to 91.3 µM; also: % is scaled to controls: 0 for no effect and ±100 for the full control effect
Active and inactive are the calls of the source. Calls come from the whole dose curve; as a rule, active = well fitted curve in the direction sought with a large enough effect in the repeat runs; inconclusive = weak or mixed curves; inactive = flat fitted curve, though single readings scatter.
measurement.kind: fluorescence, % of Rose Bengal

Solved cases (5 shown):
INSERT INTO assay_data (molecule, experimental_result) VALUES
  ('Nc1ccc(S(=O)(=O)Nc2ccccc2)cc1', 'inactive'),
  ('Nc1c(CC(=O)O)cccc1C(=O)c1ccc(Br)cc1', 'inactive'),
  ('O=C(O)C1(C(=O)Nc2ccc(Cl)cc2Cl)CC1', 'inactive'),
  ('O=P(O)(OCc1ccccc1)OCc1ccccc1', 'inactive'),
  ('C[N+]1(C)CCC(OC(=O)C(O)(c2ccccc2)C2CCCC2)C1 (configuration not stated)', 'inactive');

Prompt: Please indicate fluorescence, % of Rose Bengal recorded for Clc1ccc(Cn2c(CN3CCCC3)nc3ccccc32)cc1
Completion: -0.0239% [at 18.6 µM] (inactive)

Prompt: Please indicate fluorescence, % of Rose Bengal recorded for CCOC(=O)C1=C[C@]2(CC)CCCN3CCc4c(n1c1ccccc41)[C@@H]32
Completion: inactive

Prompt: Please indicate fluorescence, % of Rose Bengal recorded for CCCCCCCC#N
Completion: inactive

Prompt: Please indicate fluorescence, % of Rose Bengal recorded for C1CCCNCCC1
Completion: inactive

Prompt: Please indicate fluorescence, % of Rose Bengal recorded for O=C(OCCCCCCOC(=O)c1ccccc1)c1ccccc1
Completion: inactive

Prompt: Please indicate fluorescence, % of Rose Bengal recorded for CN(C)c1ccc(/C=C/c2ccc([N+](=O)[O-])cc2)cc1
Completion: -0.037% [at 3.72 µM] (inactive)

Prompt: Please indicate fluorescence, % of Rose Bengal recorded for Cc1[nH]c(C)c(Cl)c(=O)c1Cl
Completion: inactive

###

assay: qHTS assay to identify small molecule agonists of the farnesoid-X-receptor (FXR) signaling pathway - cell viability counter screen (AID 743218); details: FXR-bla HEK293T viability, CellTiter-Glo luminescence, 16 h; series mostly up to 62.6 µM; also: nearly all actives have a fitted effect of over 45% in size
Records with an inconclusive call do not appear. Activity calls are given as the source filed them. Calls come from the whole dose curve; as a rule, active = well fitted cell-killing curve with a large enough effect in the repeat runs; inconclusive = weak or mixed curves, or effect the other way; inactive = no such curve, though single readings can be large or run the other way.
Answer with one of the outcomes given here: active, inactive

Solved cases (3 shown):
INSERT INTO measurements (molecule, class_name) VALUES
  ('O=C(OCCc1ccccc1)c1ccccc1', 'inactive'),
  ('CCCCc1ncc(/C=C(\Cc2cccs2)C(=O)O)n1Cc1ccc(C(=O)O)cc1', 'inactive'),
  ('C#C[C@]1(O)CC[C@H]2[C@@H]3CCc4cc(OC5CCCC5)ccc4[C@H]3CC[C@@]21C', 'active');

Prompt: # lookup: test call for CCCn1cnc2c1c(=O)n(CCCCC(C)=O)c(=O)n2C
Completion: inactive

Prompt: # lookup: test call for O=C(Cl)c1cc(C(=O)Cl)cc(C(=O)Cl)c1
Completion: inactive

Prompt: # lookup: test call for O=C1CCC(=O)O1
Completion: inactive

Prompt: # lookup: test call for Cc1ncc(CO)c(C=O)c1O
Completion: inactive
